Measured values drawn from paper PMC8409151 for this set.

target: GT198 (Homo sapiens); test: In vitro DNA-binding assay of GT198 (biotinylated DNA, chemiluminescence); conditions: Supplementary Table 1
pIC50: −log10 of the molar value.
Assay endpoint: pIC50

// pIC50 (GT198 (Homo sapiens)) for N.N.O=C([O-])C1(C(=O)[O-])CCC1.[Pt+2] [Carboplatin] = < 5.70

###

Target: GT198 (Homo sapiens, UniProt Q9P2W1)
Sequence (Q9P2W1 1-180): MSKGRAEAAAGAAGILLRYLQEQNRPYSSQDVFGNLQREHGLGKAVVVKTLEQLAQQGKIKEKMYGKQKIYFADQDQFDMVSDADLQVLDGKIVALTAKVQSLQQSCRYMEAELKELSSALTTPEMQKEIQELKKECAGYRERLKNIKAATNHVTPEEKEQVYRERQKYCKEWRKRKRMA
Test: In vitro DNA-binding assay of GT198 (biotinylated DNA, chemiluminescence)
Conditions: read-out: Efficacy
Assay endpoint: inhibition at 2 µM (%)
Give the value, in units of %, as a plain number.

Smi	Assay endpoint	Numeric readout
O=C1c2c(O)ccc(O)c2C(=O)c2c(NCCNCCO)ccc(NCCNCCO)c21	inhibition at 2 µM	90
CC1=C(O)C(=O)C=C2C1=CC=C1[C@@]2(C)CC[C@@]2(C)[C@@H]3C[C@](C)(C(=O)O)CC[C@]3(C)CC[C@]12C	inhibition at 2 µM	30
CC(=O)[C@]1(O)Cc2c(O)c3c(c(O)c2[C@@H](O[C@H]2C[C@H](N)[C@H](O)[C@H](C)O2)C1)C(=O)c1ccccc1C3=O	inhibition at 2 µM	56
CCc1c2c(nc3ccc(OC(=O)N4CCC(N5CCCCC5)CC4)cc13)-c1cc3c(c(=O)n1C2)COC(=O)[C@]3(O)CC	inhibition at 2 µM	10
CC(=O)O[C@H]1C(=O)[C@@]2(C)[C@H]([C@H](OC(=O)c3ccccc3)[C@]3(O)C[C@H](OC(=O)[C@H](O)[C@@H](NC(=O)c4ccccc4)c4ccccc4)C(C)=C1C3(C)C)[C@]1(OC(C)=O)CO[C@@H]1C[C@@H]2O	inhibition at 2 µM	32

Turning now to a further record.
Lookup result for CCCCC(=O)OCC(=O)[C@]1(O)Cc2c(O)c3c(c(O)c2[C@@H](O[C@H]2C[C@H](NC(=O)C(F)(F)F)[C@H](O)[C@H](C)O2)C1)C(=O)c1c(OC)cccc1C3=O ; measured inhibition at 2 µM: 26
